The measured values listed here are drawn from patent US7659240B2.

# Test system: mucin immobilized to IAM.PC.DD2
# TEST_PROTOCOL: HPLC on MIC column (2:1 mucin to PC IAM particles): retention time, k′MIC, derived Km and Peff MIC
# CONDITION_NOTES: MIC column 2:1 mucin:IAM; MPS pH 7.4
Structures can show the parent of a compound that is named as a salt.

COMPOUND: CCOC(=O)[C@H](CCc1ccccc1)N[C@@H](C)C(=O)N1CCC[C@H]1C(=O)O [enalapril maleate]
k′MIC: 35.8571
--
COMPOUND: COCCc1ccc(OCC(O)CNC(C)C)cc1 (stereo not drawn)
k′MIC: 43.2857
--
COMPOUND: OC[C@@H](O)[C@@H](O)[C@H](O)[C@H](O)CO
k′MIC: 33.4286
--
COMPOUND: CC(=O)Oc1ccccc1C(=O)O
k′MIC: 38.5714
--
COMPOUND: O=C(O)c1cc(/N=N/c2ccc(S(=O)(=O)Nc3ccccn3)cc2)ccc1O
k′MIC: 71.8571
--
COMPOUND: C=C[C@H]1C[N@@]2CC[C@H]1C[C@@H]2[C@@H](O)c1ccnc2ccc(OC)cc12 [quinidine, HCl]
k′MIC: 70.4286
--
COMPOUND: CC(C)(C)NC[C@H](O)COc1nsnc1N1CCOCC1
k′MIC: 36.1429
--
COMPOUND: C[C@]12C[C@H](O)[C@H]3[C@@H](CCC4=CC(=O)CC[C@@]43C)[C@@H]1CC[C@@H]2C(=O)CO
k′MIC: 60.4286
--
COMPOUND: Cn1c(=O)c2c(ncn2C)n(C)c1=O
k′MIC: 37.5714

====

# Tested on: mucin immobilized to PC IAM particles
# TEST_PROTOCOL: pH and mucin layer thickness dependence of partition ratio on MIC columns (1:2 and 2:1)
# CONDITION_NOTES: column 2:1, 0.36 μm; pH 7; Table 9
Where a name gives a salt, the structure may show the parent alone.
In this section, each of the compounds is paired with its reported k′MIC (2:1).
OBSERVATION_TYPE: k′MIC (2:1)

COMPOUND: CC(C(=O)O)c1cccc(C(=O)c2ccccc2)c1 (centres unmarked)
MEAS_VALUE: 70.7

COMPOUND: CC(C)NCC(O)COc1ccc(CC(N)=O)cc1 (centres unmarked)
MEAS_VALUE: 37

COMPOUND: CC(C)(C)NCC(O)c1cc(O)cc(O)c1 (centres unmarked)
MEAS_VALUE: 35.7

COMPOUND: CN(CC(=O)O)C(=N)N
MEAS_VALUE: 24

COMPOUND: Cc1cc(=O)n(-c2ccccc2)n1C [Antipyrine]
MEAS_VALUE: 40.7

COMPOUND: COCCc1ccc(OCC(O)CNC(C)C)cc1 (centres unmarked)
MEAS_VALUE: 35.7

COMPOUND: CCOC(=O)[C@H](CCc1ccccc1)N[C@@H](C)C(=O)N1CCC[C@H]1C(=O)O [enalapril maleate]
MEAS_VALUE: 20.7

COMPOUND: NS(=O)(=O)c1cc(C(=O)O)c(NCc2ccco2)cc1Cl [Furosemide]
MEAS_VALUE: 25.7

====

# Test system: mucin immobilized to IAM.PC.DD2
# TEST_PROTOCOL: HPLC on MIC column (2:1 mucin to PC IAM particles): retention time, k′MIC, derived Km and Peff MIC
# CONDITION_NOTES: MIC column 2:1 mucin:IAM; MPS pH 7.4; isocratic 0.3 ml/min
Classify: fulfilled when Retention Time is strictly less than 4; not fulfilled when Retention Time is not.

COMPOUND: CC(CCc1ccccc1)NCC(O)c1ccc(O)c(C(N)=O)c1 (stereo not drawn)
ASSIGNED_CATEGORY: fulfilled
//
COMPOUND: CC(C)Cc1ccc(C(C)C(=O)O)cc1 (stereo not drawn)
ASSIGNED_CATEGORY: fulfilled
//
COMPOUND: CC(C)NCC(O)COc1cccc2ccccc12 (stereo not drawn)
ASSIGNED_CATEGORY: not fulfilled
//
COMPOUND: CC(=O)Nc1ccc(O)cc1
ASSIGNED_CATEGORY: fulfilled
//
COMPOUND: Cn1c(=O)c2c(ncn2C)n(C)c1=O
ASSIGNED_CATEGORY: fulfilled

====

# Test system: mucin immobilized to PC IAM particles
# TEST_PROTOCOL: pH and mucin layer thickness dependence of partition ratio on MIC columns (1:2 and 2:1)
# CONDITION_NOTES: column 2:1 mucin to PC IAM, 0.36 μm mucin layer; mobile phase pH 5
Counter-ions that a name gives are not always drawn.
In this section, each of the compounds is paired with its reported (2:1) k′ (pH 5).
OBSERVATION_TYPE: (2:1) k′ (pH 5)

COMPOUND: Nc1nc2c(ncn2COCCO)c(=O)[nH]1 [Acyclovir]
MEAS_VALUE: 20.43
//
COMPOUND: CN(CC(=O)O)C(=N)N [Creatine]
MEAS_VALUE: 23.29
//
COMPOUND: CC(=O)Oc1ccccc1C(=O)O [acetyl salicylic acid]
MEAS_VALUE: 24.71
//
COMPOUND: COCCc1ccc(OCC(O)CNC(C)C)cc1 (stereo not drawn) [Metoprolol]
MEAS_VALUE: 41.86
//
COMPOUND: O=C(O)c1cc(/N=N/c2ccc(S(=O)(=O)Nc3ccccn3)cc2)ccc1O [sulfasalazine]
MEAS_VALUE: 67.57
//
COMPOUND: CN/C(=N/CCSCc1nc[nH]c1C)NC#N [Cimetidine]
MEAS_VALUE: 23.29
//
COMPOUND: CC(C)NCC(O)COc1cccc2ccccc12 (stereo not drawn) [Propranolol]
MEAS_VALUE: 59.00
//
COMPOUND: NS(=O)(=O)c1cc(C(=O)O)c(NCc2ccco2)cc1Cl [Furosemide]
MEAS_VALUE: 27.57
//
COMPOUND: C=CCc1ccccc1OCC(O)CNC(C)C (stereo not drawn) [Alprenolol]
MEAS_VALUE: 49.00
//
COMPOUND: O=C(CCCN1CCC(O)(c2ccc(Cl)cc2)CC1)c1ccc(F)cc1 [haloperidol]
MEAS_VALUE: 34.71
//
COMPOUND: CC(=O)Nc1ccc(O)cc1 [acetaminophen]
MEAS_VALUE: 51.86
//
COMPOUND: CCOC(=O)[C@H](CCc1ccccc1)N[C@@H](C)C(=O)N1CCC[C@H]1C(=O)O [enalapril maleate]
MEAS_VALUE: 21.86
//
COMPOUND: CC(CCc1ccccc1)NCC(O)c1ccc(O)c(C(N)=O)c1 (stereo not drawn) [Labetalol]
MEAS_VALUE: 90.43
//
COMPOUND: Cc1cc(=O)n(-c2ccccc2)n1C [Antipyrine]
MEAS_VALUE: 39.00
//
COMPOUND: C[C@]12C[C@H](O)[C@H]3[C@@H](CCC4=CC(=O)CC[C@@]43C)[C@@H]1CC[C@@H]2C(=O)CO [corticosterone]
MEAS_VALUE: 20.43
//
COMPOUND: CC(C(=O)O)c1cccc(C(=O)c2ccccc2)c1 (stereo not drawn) [Ketoprofen]
MEAS_VALUE: 27.57
//
COMPOUND: CC(=O)CC(c1ccccc1)c1c(O)c2ccccc2oc1=O (stereo not drawn) [Warfarin]
MEAS_VALUE: 24.71
//
COMPOUND: COc1ccc(Cl)cc1C(=O)NCCc1ccc(S(=O)(=O)NC(=O)NC2CCCCC2)cc1 [glybenclamide]
MEAS_VALUE: 19.00
//
COMPOUND: CC(COc1ccccc1)N(CCCl)Cc1ccccc1 (stereo not drawn) [Phenoxybenzamine HCl]
MEAS_VALUE: 17.57
//
COMPOUND: CC(C)(C)NCC(O)c1cc(O)cc(O)c1 (stereo not drawn) [Terbutaline]
MEAS_VALUE: 37.57

====

# System: mucin immobilized to PC IAM particles
# TEST_PROTOCOL: pH and mucin layer thickness dependence of partition ratio on MIC columns (1:2 and 2:1)
# CONDITION_NOTES: column 1:2 mucin to PC IAM, 0.32 μm mucin layer; mobile phase pH 7
Where a name gives a salt, the structure may show the parent alone.
In this section, each of the compounds is paired with its reported (1:2) k′ (pH 7).
OBSERVATION_TYPE: (1:2) k′ (pH 7)

COMPOUND: CC(C)NCC(O)COc1cccc2ccccc12 (centres unmarked) [Propranolol]
MEAS_VALUE: 99.00

COMPOUND: C[C@]12C[C@H](O)[C@H]3[C@@H](CCC4=CC(=O)CC[C@@]43C)[C@@H]1CC[C@@H]2C(=O)CO [corticosterone]
MEAS_VALUE: 24.00

COMPOUND: COc1ccc(Cl)cc1C(=O)NCCc1ccc(S(=O)(=O)NC(=O)NC2CCCCC2)cc1 [glybenclamide]
MEAS_VALUE: 30.67

COMPOUND: CC(C(=O)O)c1cccc(C(=O)c2ccccc2)c1 (centres unmarked) [Ketoprofen]
MEAS_VALUE: 82.33

COMPOUND: CN(CC(=O)O)C(=N)N [Creatine]
MEAS_VALUE: 39.00

COMPOUND: Cc1cc(=O)n(-c2ccccc2)n1C [Antipyrine]
MEAS_VALUE: 50.67

COMPOUND: CN/C(=N/CCSCc1nc[nH]c1C)NC#N [Cimetidine]
MEAS_VALUE: 44.00

COMPOUND: CC(COc1ccccc1)N(CCCl)Cc1ccccc1 (centres unmarked) [Phenoxybenzamine HCl]
MEAS_VALUE: 29.00

COMPOUND: CC(=O)Oc1ccccc1C(=O)O [acetyl salicylic acid]
MEAS_VALUE: 22.33

COMPOUND: C=CCc1ccccc1OCC(O)CNC(C)C (centres unmarked) [Alprenolol]
MEAS_VALUE: 42.33

COMPOUND: CC(=O)Nc1ccc(O)cc1 [acetaminophen]
MEAS_VALUE: 64.00

COMPOUND: CN(Cc1cnc2nc(N)nc(N)c2n1)c1ccc(C(=O)N[C@@H](CCC(=O)O)C(=O)O)cc1 [amethopterin]
MEAS_VALUE: 12.33

COMPOUND: COCCc1ccc(OCC(O)CNC(C)C)cc1 (centres unmarked) [Metoprolol]
MEAS_VALUE: 47.33

COMPOUND: NS(=O)(=O)c1cc(C(=O)O)c(NCc2ccco2)cc1Cl [Furosemide]
MEAS_VALUE: 35.67

COMPOUND: O=C(CCCN1CCC(O)(c2ccc(Cl)cc2)CC1)c1ccc(F)cc1 [haloperidol]
MEAS_VALUE: 110.67

COMPOUND: CC(CCc1ccccc1)NCC(O)c1ccc(O)c(C(N)=O)c1 (centres unmarked) [Labetalol]
MEAS_VALUE: 32.33

COMPOUND: Cn1c(=O)c2c(ncn2C)n(C)c1=O [Caffeine]
MEAS_VALUE: 45.67

COMPOUND: CCOC(=O)[C@H](CCc1ccccc1)N[C@@H](C)C(=O)N1CCC[C@H]1C(=O)O [enalapril maleate]
MEAS_VALUE: 34.00

COMPOUND: Nc1nc2c(ncn2COCCO)c(=O)[nH]1 [Acyclovir]
MEAS_VALUE: 25.67

COMPOUND: CC(C)NCC(O)COc1ccc(CC(N)=O)cc1 (centres unmarked) [Atenolol]
MEAS_VALUE: 39.00
